// values below are reported Avg % Edit
test system: TTR; assay: TTR editing in HepG2 cells transfected with Spy Cas9 mRNA and dgRNAs (Table 6); assay type: cell-based, human; settings: HepG2 cells co-transfected with Spy Cas9 mRNA (SEQ ID NO:2) and dgRNAs

{"sequence-chain": "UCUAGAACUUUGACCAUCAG (tested as dual guide RNA, chemistry not given here) [CR003345]", "Avg % Edit / %": 10.58}
{"sequence-chain": "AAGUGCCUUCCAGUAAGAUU (tested as dual guide RNA, chemistry not given here) [CR003368]", "Avg % Edit / %": 51.55}
{"sequence-chain": "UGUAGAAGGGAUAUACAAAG (tested as dual guide RNA, chemistry not given here) [CR003365]", "Avg % Edit / %": 46.88}
{"sequence-chain": "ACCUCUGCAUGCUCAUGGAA (tested as dual guide RNA, chemistry not given here) [CR003371]", "Avg % Edit / %": 15.91}
{"sequence-chain": "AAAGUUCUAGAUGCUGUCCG (tested as dual guide RNA, chemistry not given here) [CR003346]", "Avg % Edit / %": 0.13}
{"sequence-chain": "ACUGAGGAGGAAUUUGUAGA (tested as dual guide RNA, chemistry not given here) [CR003363]", "Avg % Edit / %": 42.65}
{"sequence-chain": "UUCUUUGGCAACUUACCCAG (tested as dual guide RNA, chemistry not given here) [CR003357]", "Avg % Edit / %": 45.83}
{"sequence-chain": "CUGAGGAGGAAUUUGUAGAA (tested as dual guide RNA, chemistry not given here) [CR003364]", "Avg % Edit / %": 51.88}
{"sequence-chain": "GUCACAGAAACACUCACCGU (tested as dual guide RNA, chemistry not given here) [CR005301]", "Avg % Edit / %": 37.04}
{"sequence-chain": "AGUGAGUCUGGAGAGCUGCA (tested as dual guide RNA, chemistry not given here) [CR003359]", "Avg % Edit / %": 64.44}
{"sequence-chain": "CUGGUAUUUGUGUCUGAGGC (tested as dual guide RNA, chemistry not given here) [CR003341]", "Avg % Edit / %": 15.60}
{"sequence-chain": "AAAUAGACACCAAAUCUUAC (tested as dual guide RNA, chemistry not given here) [CR003366]", "Avg % Edit / %": 54.69}
{"sequence-chain": "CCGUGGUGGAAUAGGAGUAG (tested as dual guide RNA, chemistry not given here) [CR003386]", "Avg % Edit / %": 2.71}
{"sequence-chain": "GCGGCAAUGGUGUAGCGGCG (tested as dual guide RNA, chemistry not given here) [CR003377]", "Avg % Edit / %": 16.30}
